- conditions: in toluene, 303.15 K
observation.type: solubility (mole fraction)
Form: value (number only, do not type unit).

Looking up "O=[N+]([O-])c1cc(F)c(F)cc1[N+](=O)[O-]" , I see its solubility (mole fraction) listed as 0.00201

* * *

- conditions: in ethanol, 323.15 K
observation.type: solubility (mole fraction)
Form: value (number only, do not type unit).

Looking up "O=[N+]([O-])c1cc(F)c(F)cc1[N+](=O)[O-]" , I see its solubility (mole fraction) listed as 0.000662

* * *

- conditions: in ethyl acetate, 293.15 K
observation.type: solubility (mole fraction)
Form: value (number only, do not type unit).

Looking up "O=[N+]([O-])c1cc(F)c(F)cc1[N+](=O)[O-]" , I see its solubility (mole fraction) listed as 0.0019
